Attribute: GI50
Test system: prostate cancer cell line (DU145)
Assay: In vitro cytotoxicity assay, cancer cell growth inhibition, DU145 cell
Conditions: read-out: In vitro cytotoxicity assay: GI50 (μM) DU145 cell; DU145 cell

{"compound": "CN(C)CCOc1ccc2c(ccc3oc(C4(O)C=CC(=O)C=C4)cc(=O)c32)c1 [side chain No. 14]", "GI50": "0.808 µM"}
{"compound": "O=C1C=CC(O)(c2cc(=O)c3c(ccc4cc(O)ccc43)o2)C=C1 [side chain No. 19]", "GI50": "0.709 µM"}
{"compound": "COCOc1ccc2c(ccc3oc(C4(O)C=CC(=O)C=C4)cc(=O)c32)c1 [side chain No. 10]", "GI50": "0.865 µM"}
{"compound": "COc1ccc2c(ccc3oc(C4(O)C=CC(=O)C=C4)cc(=O)c32)c1 [side chain No. 8]", "GI50": "0.707 µM"}

###

System: human lung adenocarcinoma cell line (A549)
Assay: In vitro cytotoxicity assay, cancer cell growth inhibition, A549 cell
// reported GI50 for each item listed
assay.endpoint: GI50

{"molecule": "O=C1C=CC(O)(c2cc(=O)c3c(ccc4cc(OC(=O)N5CCCCC5)ccc43)o2)C=C1 [side chain No. 7]", "assay.endpoint": "GI50", "reading": "536 nM"}
{"molecule": "CCN(CC)CCOc1ccc2c(ccc3oc(C4(O)C=CC(=O)C=C4)cc(=O)c32)c1 [side chain No. 15]", "assay.endpoint": "GI50", "reading": "551 nM"}
{"molecule": "O=C1C=CC(O)(c2cc(=O)c3c(ccc4cc(OCCN5CCCC5)ccc43)o2)C=C1 [side chain No. 18]", "assay.endpoint": "GI50", "reading": "628 nM"}

###

System: human oralepithelial carcinoma cell line (KB)
Experiment: In vitro cytotoxicity assay, cancer cell growth inhibition, KB cell
assay.endpoint: In vitro cytotoxicity assay: GI50 (μM) KB cell (µM)

{"compound": "O=C1C=CC(O)(c2cc(=O)c3c(ccc4cc(OCCN5CCCCC5)ccc43)o2)C=C1 [side chain No. 17]", "reading": 0.499}
{"compound": "O=C1C=CC(O)(c2cc(=O)c3c(ccc4cc(OC(=O)N5CCCCC5)ccc43)o2)C=C1 [side chain No. 7]", "reading": 0.615}
{"compound": "CCC(C)CCCC(C)CCOc1ccc2c(ccc3oc(C4(O)C=CC(=O)C=C4)cc(=O)c32)c1 (stereo not shown) [side chain No. 13]", "reading": 1.115}
{"compound": "O=C1C=CC(O)(c2cc(=O)c3c(ccc4cc(OCCN5CCCC5)ccc43)o2)C=C1 [side chain No. 18]", "reading": 0.552}
{"compound": "CC(C)N(CCOc1ccc2c(ccc3oc(C4(O)C=CC(=O)C=C4)cc(=O)c32)c1)C(C)C [side chain No. 16]", "reading": 0.55}
{"compound": "O=C1C=CC(O)(c2cc(=O)c3c(ccc4cc(OC(=O)N5CCOCC5)ccc43)o2)C=C1 [side chain No. 6]", "reading": 0.607}
{"compound": "CCN(CC)CCOc1ccc2c(ccc3oc(C4(O)C=CC(=O)C=C4)cc(=O)c32)c1 [side chain No. 15]", "reading": 0.644}

###

Test system: multidrug-resistant nasopharyngeal carcinoma cell line (KB-Vin)
Experiment: In vitro cytotoxicity assay, cancer cell growth inhibition, KB-Vin cell
Conditions: KB-Vin cell
This section presents molecules with their documented In vitro cytotoxicity assay: GI50 (μM) KB-Vin cell values.
assay.endpoint: In vitro cytotoxicity assay: GI50 (μM) KB-Vin cell (µM)

{"molecule": "CC(C)CCOc1ccc2c(ccc3oc(C4(O)C=CC(=O)C=C4)cc(=O)c32)c1 [side chain No. 11]", "quantity.unit": "µM", "reading": 0.269}
{"molecule": "COc1ccc2c(ccc3oc(C4(O)C=CC(=O)C=C4)cc(=O)c32)c1 [side chain No. 8]", "quantity.unit": "µM", "reading": 0.692}
{"molecule": "O=C1C=CC(O)(c2cc(=O)c3c(ccc4ccccc43)o2)C=C1", "quantity.unit": "µM", "reading": 0.674}
{"molecule": "CN(C)CCOc1ccc2c(ccc3oc(C4(O)C=CC(=O)C=C4)cc(=O)c32)c1 [side chain No. 14]", "quantity.unit": "µM", "reading": 0.841}
{"molecule": "CC(C)CCCC(C)CCOc1ccc2c(ccc3oc(C4(O)C=CC(=O)C=C4)cc(=O)c32)c1 (stereo not shown) [side chain No. 12]", "quantity.unit": "µM", "reading": 0.335}
{"molecule": "O=C1C=CC(O)(c2cc(=O)c3c(ccc4cc(O)ccc43)o2)C=C1 [side chain No. 19]", "quantity.unit": "µM", "reading": 0.738}
{"molecule": "COCOc1ccc2c(ccc3oc(C4(O)C=CC(=O)C=C4)cc(=O)c32)c1 [side chain No. 10]", "quantity.unit": "µM", "reading": 0.766}

###

Test system: multidrug-resistant nasopharyngeal carcinoma cell line (KB-Vin)
Test: In vitro cytotoxicity assay, cancer cell growth inhibition, KB-Vin cell
Please mark Condition met if the recorded In vitro cytotoxicity assay: GI50 (μM) KB-Vin cell is equal to or greater than 0.7 µM, and Condition not met if it falls below.

{"molecule": "CCC(C)CCCC(C)CCOc1ccc2c(ccc3oc(C4(O)C=CC(=O)C=C4)cc(=O)c32)c1 (stereo not shown) [side chain No. 13]", "class": "Condition met"}
{"molecule": "O=C1C=CC(O)(c2cc(=O)c3c(ccc4cc(OCCN5CCCCC5)ccc43)o2)C=C1 [side chain No. 17]", "class": "Condition not met"}
{"molecule": "O=C1C=CC(O)(c2cc(=O)c3c(ccc4cc(OC(=O)N5CCOCC5)ccc43)o2)C=C1 [side chain No. 6]", "class": "Condition not met"}
{"molecule": "CCN(CC)CCOc1ccc2c(ccc3oc(C4(O)C=CC(=O)C=C4)cc(=O)c32)c1 [side chain No. 15]", "class": "Condition met"}
{"molecule": "O=C1C=CC(O)(c2cc(=O)c3c(ccc4cc(OC(=O)N5CCCCC5)ccc43)o2)C=C1 [side chain No. 7]", "class": "Condition not met"}
{"molecule": "O=C1C=CC(O)(c2cc(=O)c3c(ccc4cc(OCCN5CCCC5)ccc43)o2)C=C1 [side chain No. 18]", "class": "Condition met"}

###

System: human lung adenocarcinoma cell line (A549)
Assay: In vitro cytotoxicity assay, cancer cell growth inhibition, A549 cell

{"compound": "CC(C)N(CCOc1ccc2c(ccc3oc(C4(O)C=CC(=O)C=C4)cc(=O)c32)c1)C(C)C [side chain No. 16]", "quantity.unit": "µM", "GI50": 0.584}
{"compound": "O=C1C=CC(O)(c2cc(=O)c3c(ccc4cc(OCCN5CCCCC5)ccc43)o2)C=C1 [side chain No. 17]", "quantity.unit": "µM", "GI50": 0.483}
{"compound": "CCC(C)CCCC(C)CCOc1ccc2c(ccc3oc(C4(O)C=CC(=O)C=C4)cc(=O)c32)c1 (stereo not shown) [side chain No. 13]", "quantity.unit": "µM", "GI50": 4.27}
{"compound": "O=C1C=CC(O)(c2cc(=O)c3c(ccc4cc(OC(=O)N5CCOCC5)ccc43)o2)C=C1 [side chain No. 6]", "quantity.unit": "µM", "GI50": 0.603}

###

Tested on: human oralepithelial carcinoma cell line (KB)
Experiment: In vitro cytotoxicity assay, cancer cell growth inhibition, KB cell
Conditions: KB cell
Mark Satisfied for reported In vitro cytotoxicity assay: GI50 (μM) KB cell of 0.8 µM or greater; mark Not satisfied for anything smaller.

{"compound": "CN(C)CCOc1ccc2c(ccc3oc(C4(O)C=CC(=O)C=C4)cc(=O)c32)c1 [side chain No. 14]", "class": "Not satisfied"}
{"compound": "CC(C)CCCC(C)CCOc1ccc2c(ccc3oc(C4(O)C=CC(=O)C=C4)cc(=O)c32)c1 (stereo not shown) [side chain No. 12]", "class": "Not satisfied"}
{"compound": "O=C1C=CC(O)(c2cc(=O)c3c(ccc4ccccc43)o2)C=C1", "class": "Satisfied"}
{"compound": "O=C1C=CC(O)(c2cc(=O)c3c(ccc4cc(O)ccc43)o2)C=C1 [side chain No. 19]", "class": "Satisfied"}
{"compound": "CC(C)CCOc1ccc2c(ccc3oc(C4(O)C=CC(=O)C=C4)cc(=O)c32)c1 [side chain No. 11]", "class": "Not satisfied"}
{"compound": "COc1ccc2c(ccc3oc(C4(O)C=CC(=O)C=C4)cc(=O)c32)c1 [side chain No. 8]", "class": "Satisfied"}

###

Test system: prostate cancer cell line (DU145)
Experiment: In vitro cytotoxicity assay, cancer cell growth inhibition, DU145 cell
# key: entry, value: GI50
assay.endpoint: GI50

{"compound": "O=C1C=CC(O)(c2cc(=O)c3c(ccc4cc(OC(=O)N5CCCCC5)ccc43)o2)C=C1 [side chain No. 7]", "reading": "522 nM"}
{"compound": "CCC(C)CCCC(C)CCOc1ccc2c(ccc3oc(C4(O)C=CC(=O)C=C4)cc(=O)c32)c1 (stereo not drawn) [side chain No. 13]", "reading": "1260 nM"}
{"compound": "O=C1C=CC(O)(c2cc(=O)c3c(ccc4cc(OCCN5CCCC5)ccc43)o2)C=C1 [side chain No. 18]", "reading": "693 nM"}

All figures here come from patent US8969406B2.
